- Test system: early stage (I-III) gametocytes of 3D7 expressing luciferase parasite
- assay.protocol: In vitro gametocytocidal activity, early stage
- Assay type: cell-based, Plasmodium falciparum
- run.parameters: Plasmodium falciparum, 3D7; read-out: Pf Gametocyte EC50 (early stage)
readout: pEC50
Give only the number. pEC50 is defined as minus log10 of concentration in molar units.

Request body: readout pEC50, system early stage (I-III) gametocytes of 3D7 expressing luciferase parasite, query `CN(C)CCNc1cc(/C=C/c2ccc(C(F)(F)F)cc2)nc2ccc(Cl)cc12` . Return the value.
6.33

----------
- System: CQ-resistant (Dd2) strain of P. falciparum
- assay.protocol: In vitro antiplasmodial activity, SYBR Green I fluorescence assay, Dd2 strain
- Format: cell-based, Plasmodium falciparum
Give measured RI, resistance index = [IC50 (Dd2)/IC50 (3D7)] for each item. Keep answers brief.
Answer with a number only.

Checklist item: RI, resistance index = [IC50 (Dd2)/IC50 (3D7)] tested on CQ-resistant (Dd2) strain of P. falciparum, entry Fc1ccc(/C=C/c2cc(NCCN3CCOCC3)c3cc(Cl)ccc3n2)cc1 [Compound 81] , value?
0.6

And what about the compound CN1CCN(CCNc2cc(/C=C/c3ccc(F)cc3)nc3ccc(Cl)cc23)CC1 [Compound 86] ?
1

How about CCN(CC)CCCC(C)Nc1ccnc2cc(Cl)ccc12 (stereo not drawn) [CQ, Chloroquine, reference compound] ?
9.8

Would you kindly repeat that for CN1CCN(CCCCNc2cc(/C=C/c3ccncc3)nc3ccc(Cl)cc23)CC1 [Compound 96] ?
0.9

Same for Fc1ccc(/C=C/c2cc(NCc3ccccn3)c3cc(Cl)ccc3n2)cc1 [Compound 72]
0.6

----------
- Test system: CQ-resistant (Dd2) strain of P. falciparum
- assay.protocol: In vitro antiplasmodial activity, SYBR Green I fluorescence assay, Dd2 strain
- Type: cell-based, Plasmodium falciparum
- run.parameters: Plasmodium falciparum, DD2, 72 h, CQ-resistant (Dd2) strain, 72 h incubation
readout: EC50 (nM)
// units = nM; emit number, no label

Write down the reported EC50 of CCN(CC)CCCC(C)Nc1ccnc2cc(Cl)ccc12 (stereo not shown) [CQ, Chloroquine, reference compound] , test system: CQ-resistant (Dd2) strain of P. falciparum.
174

----------
- System: HepG2
- assay.protocol: Cytotoxicity assay using MTS in human hepatocytes
- Format: cell-based
readout: IC50 (µM)
Dear colleague, please return just the value in µM, with no unit written.

GET /values?readout=IC50&item= `FC(F)(F)c1ccc(/C=C/c2cc(NCCCCN3CCOCC3)c3cc(Cl)ccc3n2)cc1`
10.2

Then this compound: `CN1CCN(CCCCNc2cc(/C=C/c3ccncc3)nc3ccc(Cl)cc23)CC1`
8.38

And the next one, `CN1CCN(CCNc2cc(/C=C/c3ccc(F)cc3)nc3ccc(Cl)cc23)CC1` ?
3.2

Request: `Fc1ccc(/C=C/c2cc(NCc3ccccn3)c3cc(Cl)ccc3n2)cc1`
19.8

Now the same for `Fc1ccc(/C=C/c2cc(NCCN3CCOCC3)c3cc(Cl)ccc3n2)cc1`
17.2

Okay, and `Fc1ccc(/C=C/c2cc(NCCCCN3CCOCC3)c3cc(Cl)ccc3n2)cc1` ?
3.55
